# Lookup of reported IC50 keyed by entry
Biological target: KRAS WT (Homo sapiens (Human), UniProt P01116+P62937)
Sequence (P01116-2 other isoform, or with tags, fused parts or gaps): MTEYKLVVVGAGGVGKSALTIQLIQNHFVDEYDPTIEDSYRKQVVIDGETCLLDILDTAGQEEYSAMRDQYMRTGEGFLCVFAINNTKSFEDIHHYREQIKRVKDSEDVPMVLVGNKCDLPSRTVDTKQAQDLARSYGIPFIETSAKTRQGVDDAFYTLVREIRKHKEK
Sequence (P62937 whole entry): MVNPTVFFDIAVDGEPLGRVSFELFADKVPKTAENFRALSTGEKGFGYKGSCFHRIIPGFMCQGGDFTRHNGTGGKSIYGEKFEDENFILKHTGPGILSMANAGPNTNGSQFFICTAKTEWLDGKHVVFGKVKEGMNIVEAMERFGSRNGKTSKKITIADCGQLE
Assay: Ras-Raf (BRAF RBD) disruption / FRET / MOA assay, KRAS WT
Format: biochemical
Conditions: read-out: IC50* KRAS WT FRET data

compound	IC50
C=CC(=O)N1C[C@H]2CN(C(=O)N(C)[C@H](C(=O)N[C@H]3Cc4nc(cs4)-c4ccc5c(c4)c(c(-c4cccnc4[C@H](C)OC)n5CC)CC(C)(C)COC(=O)[C@@H]4CCCN(N4)C3=O)C(C)C)[C@H]2C1 (atropisomer, axis not shown)	100 to 1000 nM
CO[C@@H](C)c1ncccc1-c1c2c3nc(ccc3n1CC(F)(F)F)-c1cccc(c1)C[C@H](NC(=O)[C@@H](COC1CN(C(=O)C#CC(C)(C)N(C)C)C1)C(C)C)C(=O)N1CCC[C@H](N1)C(=O)OCC(C)(C)C2 (atropisomer, axis not shown)	> 10000 nM
CCn1c(-c2cccnc2[C@H](C)OC)c2c3cc(ccc31)-c1cccc(c1)C[C@H](NC(=O)CCOC1CN(C(=O)C#CC(C)(C)N3CCC3)C1)C(=O)N1CCC[C@H](N1)C(=O)OCC(C)(C)C2 (atropisomer, axis not shown)	> 10000 nM
CCn1c(-c2cccnc2[C@H](C)OC)c2c3cc(ccc31)-c1cccc(c1)C[C@H](NC(=O)[C@H](C(C)C)N1CC[C@@]3(CCN(C(=O)C#C[C@H]4COCCN4C)C3)C1=O)C(=O)N1CCC[C@H](N1)C(=O)OCC(C)(C)C2 (atropisomer, axis not shown)	1000 to 10000 nM

Recorded IC50 of C=CC(=O)NC[C@@H]1CCN1C(=O)N(C)[C@H](C(=O)N[C@H]1Cc2nc(cs2)-c2ccc3c(c2)c(c(-c2cccnc2[C@H](C)OC)n3CC)CC(C)(C)COC(=O)[C@@H]2CCCN(N2)C1=O)C(C)C (atropisomer, axis not shown) , please.
1000 to 10000 nM
